B1: scFv; the commonest letter at each place (parent)
chain 1: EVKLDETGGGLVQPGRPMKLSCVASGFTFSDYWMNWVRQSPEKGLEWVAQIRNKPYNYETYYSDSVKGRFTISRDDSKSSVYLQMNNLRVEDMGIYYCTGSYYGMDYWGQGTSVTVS
chain 2: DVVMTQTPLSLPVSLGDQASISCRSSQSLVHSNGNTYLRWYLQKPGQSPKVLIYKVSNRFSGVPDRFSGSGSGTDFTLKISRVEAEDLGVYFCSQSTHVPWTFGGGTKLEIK

- Variants of: B1
- protocol: Kd (Tite-Seq)
- test context: with fluorescein; format: scFv 4-4-20, heavy + light
pKd: −log10 of the molar value.
measurement label: pKd

Completed entries (count: 5):
chain 1 G100F W108A : ≤ 5.00
chain 1 Y32M W36M : ≤ 5.00
chain 1 F29S N35H : ≤ 5.00
chain 1 G104F D106G : ≤ 5.00
chain 1 Y103S G104D : ≤ 5.00

Sample chain 1 W33N M34D — what was its pKd?
≤ 5.00

Follow-up entry: chain 1 S30R M34C
8.35

Next variant up: chain 1 G100M Y107G
≤ 5.00

Same read-out for chain 1 M34H V37P ?
≤ 5.00

Follow-up entry: chain 1 S101D Y107S
≤ 5.00

// repeat for chain 1 Y102K Y107K and report
5.16

Proceed to chain 1 M105Q G109H
≤ 5.00

How about this variant: chain 1 T28R S30F
≥ 9.50

Next record, please: chain 1 G100T Y102H D106M
≤ 5.00

Would you mind doing chain 1 Y103G G109T as well?
≤ 5.00
